READOUT_LABEL: melting point

O=C(Nc1nc(-c2ccco2)c(C(=O)C2CCOCC2)s1)c1cccc(F)c1F: 154 to 160 °C
Cc1ccnc(C(=O)c2sc(NC(=O)c3ccncc3)nc2-c2ccco2)c1: 240 to 245 °C
COc1cc(C(=O)Nc2nc(-c3ccco3)c(-c3ccncc3)s2)ccn1: 285 to 288 °C
Cc1cccc(C(=O)c2sc(NC(=O)c3ccncc3)nc2-c2ccco2)n1: 238 to 241 °C
O=C(Nc1nc(-c2ccco2)c(C(=O)c2ccccc2)s1)c1ccc(=O)n(Cc2ccncc2)c1: 270 to 275 °C

Recorded result, `O=C(c1ccccn1)c1sc(NC(=O)C2CC2)nc1-c1ccco1` , melting point: 191 to 192 °C

Recorded result, `COCC(=O)Nc1nc(-c2ccco2)c(C(=O)C2CCOCC2)s1` , melting point: 148 to 149 °C

Recorded result, `CCn1ccc(C(=O)c2sc(NC(=O)c3ccncc3)nc2-c2ccco2)c1` , melting point: 127 to 134 °C

====

melting point for assorted compounds

CCN1CCN(CC(=O)Nc2nc(-c3ccco3)c(C(=O)c3ccccn3)s2)CC1 [Compound 273]: 142 to 144 °C
O=C(Nc1nc(-c2ccco2)c(C(=O)C2CCOCC2)s1)c1ccccc1F [Compound 466]: 172 to 176 °C
O=C(CNC12CC3CC(CC(O)(C3)C1)C2)Nc1nc(-c2ccco2)c(C(=O)C2CCOCC2)s1 [Compound 578]: 176 to 178 °C
Cc1cc(C(=O)Nc2nc(-c3ccco3)c(C(=O)C3CCC(=O)CC3)s2)ccn1 [Compound 449]: 108 to 115 °C
O=C(Nc1nc(-c2ccco2)c(C(=O)C2CCOCC2)s1)c1cnn(-c2ccccc2)c1 [Compound 521]: 217 to 220 °C

Recorded result, Cc1cccc(C(=O)Nc2nc(-c3ccco3)c(C(=O)C3CCOCC3)s2)c1 [Compound 459] , melting point: 197 to 201 °C

Recorded result, COc1cccc(C(=O)Nc2nc(-c3ccco3)c(C(=O)C3CCOCC3)s2)c1 [Compound 462] , melting point: 198 to 200 °C

Recorded result, O=C(Nc1nc(-c2ccco2)c(C(=O)C2CCOCC2)s1)c1ccoc1 [Compound 516] , melting point: 236 to 238 °C

====

melting point for assorted compounds

The examples below pair each entry with its known result.
COc1cccc(OC)c1C(=O)Nc1nc(-c2ccco2)c(C(=O)C2CCOCC2)s1 [Compound 486]: 152 to 156 °C
O=C(Nc1nc(-c2ccco2)c(C(=O)c2ccccn2)s1)c1ccc2c(c1)OCO2 [Compound 209]: 235 to 236 °C
O=C(CN1CCC2(CC1)OCCO2)Nc1nc(-c2ccco2)c(C(=O)c2ccccn2)s1 [Compound 269]: 188 to 204 °C
O=C(Nc1nc(-c2ccco2)c(C(=O)C2CCOCC2)s1)c1ccc2c(c1)OC(F)(F)O2 [Compound 498]: 124 to 129 °C
O=C(Nc1nc(-c2ccco2)c(C(=O)c2ccccn2)s1)c1cc[nH]c(=O)c1 [Compound 231]: 170 to 180 °C (dec.)

Recorded result, O=C(Nc1nc(-c2ccco2)c(C(=O)c2ccncc2)s1)c1ccncc1 [Compound 329] , melting point: 276 to 285 °C

Recorded result, COc1cccc(C(=O)Nc2nc(-c3ccco3)c(C(=O)c3ccccn3)s2)c1 [Compound 201] , melting point: 165 to 166 °C
